As shown below, each of these compounds has a reported growth inhibition value.
- Assay Remarks: NCI Yeast Anticancer Drug Screen. Data for the bub3 strain (AID 167)
- Test Context: S. cerevisiae bub3 mutant strain, at 50.0 µM (retest, dose inferred, filed as 5.0), hits give high values
The panel holds about 79,000 compounds, 15% with a hit somewhere; the sample as a whole holds those more often. Calls of active or inactive are those of the source. No stated cut-off is given here; in the data, active means growth inhibition above about 70%; inactive means the rest.

These solved cases illustrate the format of a correct answer.
- Smiles Repr: "O=C(O)c1cc2ccc(Cl)cc2c(O)c1C1=CCCCC1"
  growth inhibition: "64% (inactive)"
- Smiles Repr: "Cc1cc(NCCCCCCCCNc2cc(C)nc3cc(N)ccc23)c2ccc(N)cc2n1"
  growth inhibition: "99% (active)"
- Smiles Repr: "CNC(=O)OCc1c(COC(=O)NC)c2n(c1C)-c1ccc(OC)cc1CCC2"
  growth inhibition: "100% (active)"
- Smiles Repr: "CCOC1(c2cccc([N+](=O)[O-])c2)c2ccccc2Oc2ccccc21"
  growth inhibition: "77% (active)"
- Smiles Repr: "O=C(Oc1ccc2c(c1)CN(Cc1ccccc1)CO2)c1ccccc1"
  growth inhibition: "46% (inactive)"
- Smiles Repr: "Nc1ncc(-c2ccc(Br)cc2)s1"
  growth inhibition: "99% (active)"

query: Quote growth inhibition reported for `CN1C(=O)c2ccc3ccccc3c2C1=O` please.
result: 37% (inactive)

query: Identify measured growth inhibition corresponding to `CCOC(=O)c1cc([N+](=O)[O-])c(Sc2ncnc3nc[nH]c23)c([N+](=O)[O-])c1`
result: 34% (inactive)

query: Look up and state reported growth inhibition for `O=C1C=C(Cl)C(=O)C(c2ccc(Cl)cc2)=C1`
result: 98% (active)
